# Tested on: LOX IMVI
# procedure_details: NCI tumour cell line growth inhibition, 48 h
The source made the active and inactive calls. No stated cut-off is given here; in the data, active = GI50 up to about 1.1 µM and inactive = higher. Numbered stars: 1 amine (or outer) side, 2 acyl side, 3 side chain; on linkers, the order of the positions; unused ones are H or OH. Bridge positions count the residues as written; N and C are the ends. Square brackets hold non-standard residues; d marks the D form. Peptide text beside a SMILES is read from it. X58 = COc1c(N[*:1])cccc1C(=O)O[C@H](C(=O)[C@H](C)C(=O)[*:2])C(C)C; X57 = CC(C)C[C@H](C(=O)[*:2])C(C)C(=O)C1CCCN1[*:1]; NMeY = CN[C@@H](Cc1ccc(O)cc1)C(=O)O; Lac = C[C@H](O)C(=O)O
Below, each entry is listed alongside its reported GI50.

Look over these answered cases.
{"compound": "C/C(=N\\NC(C)(C)C)c1sc(-c2nc(C)c(/C(C)=N/NC(C)(C)C)s2)nc1C", "GI50": "> 100 µM (inactive)"}
{"compound": "O=C1N[C@@H]([C@H]2CC[C@H](Cl)CN2)C(=O)N[C@H]1[C@H]1CC[C@H](Cl)CN1", "GI50": "0.237 µM (active)"}
{"compound": "CC(=O)NNc1nc(C)c(C(=O)NNC(=O)C(=O)Nc2nc3ccc([N+](=O)[O-])cc3s2)s1", "GI50": "54.1 µM (inactive)"}
{"compound": "O=C1/C(=C/c2ccccc2)N=C(c2ccccc2)N1n1c(-c2ccccc2)nc2ccccc2c1=O", "GI50": "35.6 µM (inactive)"}
{"compound": "COc1cc2c(cc1OC)[C@H]1C(COC(=O)c3ccccc3)CS/C(=N/c3ccccc3)N1CC2 (stereo not given in full)", "GI50": "92.9 µM (inactive)"}
{"compound": "COc1cc2ccc(=O)oc2cc1O", "GI50": "61.9 µM (inactive)"}
{"compound": "COc1ccc(C[C@H]2C(=O)O[C@H](C)[C@H](NC(=O)[C@@H](CC(C)C)C(C)C(=O)C3CCCN3C(=O)[C@H](C)O)C(=O)Nc3cccc(c3OC)C(=O)O[C@@H](C(C)C)C(=O)[C@H](C)C(=O)N[C@@H](CC(C)C)C(=O)N3CCC[C@H]3C(=O)N2C)cc1 (stereo not given in full) (H-[Lac][X57]T[X58]LP[NMeY](Me); ester 3-C)", "GI50": "9.66 µM (inactive)"}
{"compound": "Cc1ccc(S(=O)(=O)N(CC(O)COc2ccccc2)c2c(F)c(F)c(F)c(F)c2F)cc1 (stereo not given)", "GI50": "13.9 µM (inactive)"}

Let me check: O=C(O)/C=C(/C(=O)O)C12CCN3CC4=CCOC5CC(=O)NC1C5C4CC32 (stereo not given) , system LOX IMVI, measured GI50 is > 100 µM (inactive)

Let me check: Oc1c(N2CCCCC2)cc(-c2cc(N3CCCCC3)c(O)c3ccccc23)c2ccccc12 , system LOX IMVI, measured GI50 is 25.1 µM (inactive)

Let me check: O=C1/C(=C/Cc2ccco2)N=C(c2ccccc2)N1c1nc2ccc(Sc3ccccc3)cc2[nH]1 , system LOX IMVI, measured GI50 is 18.8 µM (inactive)

Let me check: CCSc1nc(N)c2c(-c3ccccc3)c3c(nc2n1)CCC3 , system LOX IMVI, measured GI50 is > 100 µM (inactive)

Let me check: O=C1c2ccccc2C(=O)c2c(Nc3ccc4c5c(cccc35)C(=O)c3ccccc3-4)cccc21 , system LOX IMVI, measured GI50 is > 100 µM (inactive)
